- EXPERIMENTAL SYSTEM: Mas-related G-protein coupled receptor member X1 (Homo sapiens) (UniProt Q96LB2)
- Sequence (Q96LB2 whole entry, looked up): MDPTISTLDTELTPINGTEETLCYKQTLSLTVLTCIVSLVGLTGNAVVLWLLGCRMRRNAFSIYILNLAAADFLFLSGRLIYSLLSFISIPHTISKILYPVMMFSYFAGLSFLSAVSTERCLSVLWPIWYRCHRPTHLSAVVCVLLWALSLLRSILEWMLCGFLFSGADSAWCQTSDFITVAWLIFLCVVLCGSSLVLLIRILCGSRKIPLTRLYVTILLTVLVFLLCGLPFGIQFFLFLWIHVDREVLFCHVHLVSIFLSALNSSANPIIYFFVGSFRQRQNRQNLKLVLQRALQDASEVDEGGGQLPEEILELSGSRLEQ
- METHOD DESCRIPTION: blockade of BAM8-22-evoked MrgX1 calcium response – HEK293 cells, Fluo-4 calcium flux, primary screen (AID 588676);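 on B-score: peak minus trough fluorescence over baseline after final BAM8-22 challenge near maximal dose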
- COND: Fluo-4, BAM8-22 antagonism, at 10 µM; stronger effect = lower value
About 3,900 (1.3%) of roughly 310,000 compounds were called active. The sample holds actives, similar compounds and a random draw of the others, so the mix is not that of the screen.
OBSERVABLE: B-score

>>> observed_measurement("COC(=O)c1sccc1NS(=O)(=O)c1ccc(F)cc1F")
"-4.66 (active)"
>>> observed_measurement("O=C(Nc1ncccc1O)c1ccc(S(=O)(=O)N2CCCCCC2)cc1")
"inactive"
>>> observed_measurement("COc1c(Br)cc2c(C)c(C(=O)N3CCOCC3)oc2c1Br")
"inactive"
>>> observed_measurement("COC(=O)c1sccc1NC(=O)CSc1ccccc1NS(=O)(=O)c1cc(Cl)ccc1Cl")
"inactive"
>>> observed_measurement("CC(C)CC(O)C1CCN(C(=O)CCc2nnc(-c3ccc4c(c3)OCO4)o2)CC1 (configuration not stated)")
"inactive"
>>> observed_measurement("Fc1cccc(Cc2noc(CN3CCN(c4cnccn4)CC3)n2)c1")
"inactive"
>>> observed_measurement("O=C(Cc1ccccc1)Nc1ccc(NC(=O)c2cccnc2)cc1")
"inactive"
>>> observed_measurement("O=C(O)CSC(NC(=O)c1cccnc1)(C(F)(F)F)C(F)(F)F")
"-5.59 (active)"
>>> observed_measurement("COc1ccc(S(=O)(=O)N2CCC(C(=O)NCCC(=O)NCc3cccc(OC)c3)CC2)cc1")
"inactive"
>>> observed_measurement("O=C(Nc1ncccc1O)c1ccc(S(=O)(=O)N2CCCC2)cc1")
"inactive"
>>> observed_measurement("CCCCN(C1CCS(=O)(=O)C1)S(=O)(=O)c1ccc(C(C)C)cc1 (configuration not stated)")
"inactive"
>>> observed_measurement("CCc1ccccc1NC(=O)c1ccc2c(c1)CCN2S(C)(=O)=O")
"inactive"
>>> observed_measurement("Cc1nccn1CCC1CCCCN1C(=O)CCc1nnc(-c2ccsc2)o1 (configuration not stated)")
"-4.86 (active)"
>>> observed_measurement("COc1ccc(N2C(=O)C(CC(=O)Nc3ccccc3)N(Cc3ccc(OC)c(OC)c3)C2=O)cc1 (configuration not stated)")
"inactive"
>>> observed_measurement("CCOC(=O)[C@H]1CCC[C@@H](NS(=O)(=O)c2ccc(NC(C)=O)cc2)C1")
"inactive"
>>> observed_measurement("COc1ccccc1CNC(=O)C1CCCN(S(=O)(=O)c2cccc3cccnc23)C1 (configuration not stated)")
"inactive"
>>> observed_measurement("CC(C)(C)n1nc2c(c1NC(=O)c1ccc(S(=O)(=O)N3CCCC3)cc1)CS(=O)C2 (configuration not stated)")
"-5.73 (active)"
>>> observed_measurement("O=C(CN1CCN(c2ccc(Cl)cc2)CC1)c1ccccc1")
"inactive"
>>> observed_measurement("CCOC(=O)c1cc(NC(=O)SCC(=O)O)c(C)nc1C")
"inactive"
>>> observed_measurement("CC(Oc1ccccc1F)C(=O)NN (configuration not stated)")
"inactive"
>>> observed_measurement("Cc1ccc(Nc2cc(=O)n(C3CCCCC3)c(=O)[nH]2)cc1C")
"inactive"
>>> observed_measurement("COc1ccc(NS(=O)(=O)c2ccc(F)cc2F)cn1")
"inactive"
